system: Leishmania major; assay: Inhibition of Leishmania major CK1 assessed as residual activity at 1 uM in presence of ATP by ADP-glo luminescent assay relative to control
MEASUREMENT_KIND: Activity (%)

> print(dat)
                    structure.smiles.string  measurement.kind  display.unit  observed.result
1  CN1CC=C(c2c(O)cc(O)c3c(=O)cc(-c4ccc(Sc5nc6ccccc6n5C)cc4)oc23)CC1          Activity             %               68
2  CN1CC=C(c2c(O)cc(O)c3c(=O)cc(-c4ccc(Sc5nc6ccccc6[nH]5)cc4Cl)oc23)CC1          Activity             %               81
3  CN1CC=C(c2c(O)cc(O)c3c(=O)cc(-c4ccc(Sc5nc(-c6ccccc6)c[nH]5)cc4)oc23)CC1          Activity             %               88

I. CN1CC=C(c2c(O)cc(O)c3c(=O)cc(-c4ccc(Sc5nc6ccccc6n5C)cc4Cl)oc23)CC1
II. CN1CC=C(c2c(O)cc(O)c3c(=O)cc(-c4ccc(Sc5nc6ccccc6[nH]5)cc4)oc23)CC1
Lower value for measured Activity? Options: I , II Reply with the label of the item you choose. I
(I: 62%, II: 99%)

* * *

In this section, each of the compounds is paired with its reported Activity.
test system: Plasmodium falciparum; assay: Inhibition of Plasmodium falciparum GSK3 assessed as residual activity at 1 uM in presence of ATP by ADP-glo luminescent assay relative to control

Consider the reported Activity for these compounds:
> print(dat)
                    structure.smiles.string  measurement.kind  observed.result
1  CN1CC[C@H](c2c(O)cc(O)c3c(=O)cc(-c4ccccc4Cl)oc23)[C@H](O)C1          Activity           > 100%
2  CN1CC=C(c2c(O)cc(O)c3c(=O)cc(-c4ccc(Sc5nc6ccccc6[nH]5)cc4Cl)oc23)CC1          Activity           > 100%

# next compound below
If you can, please state the reported Activity value of `CN1CC=C(c2c(O)cc(O)c3c(=O)cc(-c4ccc(Sc5nc(-c6ccccc6)c[nH]5)cc4)oc23)CC1` . > 100%
